- System: HOP-92
- assay remarks: NCI tumour cell line growth inhibition, 48 h
Calls of active or inactive are those of the source. No stated cut-off is given here; in the data, active = GI50 up to about 1.1 µM and inactive = higher.
Log the outcome using a class from active, inactive

Example results:
CN(C)/C=C(\C(=O)c1ccccc1)n1nc(-c2ccccc2)cc1-c1ccccc1 = inactive
OC1NC2CC3NC(O)C(O)NC3CC2NC1O (stereo not drawn) = inactive
COC1=C(OC)C(=O)C(Sc2ccc3ccccc3c2)=CC1=O = inactive
O=C(Cc1ccccc1)N/N=C(/c1nc2ccc([N+](=O)[O-])cc2nc1O)C(O)c1ccco1 (stereo not drawn) = inactive

Look up the recorded call for C=CCCCCCCCCCP(=O)(c1ccccc1)c1ccc2c(c1)OCCOCCOCCOCCO2 (stereo not drawn) in this test.
inactive
